# Tested on: field corn (Zea mays L., var. Dekalb 535, CORN)
# Assay protocol: Pre-emerge greenhouse screening, crop safety (phytotoxicity rating)
# Assay type: in vivo
# Protocol conditions: 125 g ai/ha, 14 days after application
Recorded metric: CORN crop damage, phytotoxicity rating (0-100 scale)
Output spec: single numeric token, no unit.

Some molecules with known CORN crop damage, phytotoxicity rating (0-100 scale) results, for comparison:
                                   molecule  numeric_value
0  Cn1c(C(F)(F)F)cc(=O)n(-c2cc(Oc3ncccc3[N+](=O)[O-])c(Cl)cc2F)c1=S              8
1  Cn1c(=S)n(C)c(=O)n(-c2cc(Oc3ccccc3[N+](=O)[O-])c(Cl)cc2F)c1=O              0
2  Cn1c(C(F)(F)F)cc(=O)n(-c2cc(Oc3ccccc3C#N)c(Cl)cc2F)c1=S              0
3  Cn1nc(-c2cc(Oc3ncccn3)c(Cl)cc2F)c(Cl)c1[S+]([O-])C(F)F (centres unmarked)             40
4  COc1ccc(Oc2cc(-n3c(=O)cc(C(F)(F)F)n(C)c3=S)c(F)cc2C#N)cc1              5
5  Cn1c(C(F)(F)F)cc(=O)n(-c2cc(Oc3ccccc3)c(C#N)cc2F)c1=S              5
6  Cn1c(=S)n(C)c(=O)n(-c2cc(Oc3ccccc3)c(Cl)cc2F)c1=O              0

The recorded CORN crop damage, phytotoxicity rating (0-100 scale) for entry `N#Cc1c(-c2cc(Oc3ncccn3)c(Cl)cc2F)nn2c1CCCC2` equals 0

---

# System: sicklepod (Cassia obtusifolia, CASOB)
# Assay protocol: Post-emerge greenhouse herbicide activity screening, phytotoxicity rating
# Assay type: in vivo
# Protocol conditions: 31.3 g ai/ha
Recorded metric: CASOB phytotoxicity rating (0-100 scale)
Output spec: single numeric token, no unit.

>>> print(df.to_string())
                                   molecule  numeric_value
0  Cn1c(C(F)(F)F)cc(=O)n(-c2cc(Oc3ccccc3N)c(Cl)cc2F)c1=S             50
1  Cn1c(C(F)(F)F)cc(=O)n(-c2cc(Oc3ccccc3)c(C#N)cc2F)c1=S             50
2  Fc1cc(Cl)c(Oc2ncccn2)cc1-c1nn2c(c1Br)CCCC2            100

Proceed to the following item.
The recorded CASOB phytotoxicity rating (0-100 scale) for entry Cn1nc(-c2cc(Oc3ncccn3)c(Cl)cc2F)c(Cl)c1[S+]([O-])C(F)F (stereo not shown) equals 35

---

# Tested on: barnyardgrass (Echinochloa crus-galli, ECHCG)
# Assay protocol: Post-emerge greenhouse herbicide activity screening, phytotoxicity rating
# Assay type: in vivo
# Protocol conditions: 125 g ai/ha, 14 days after application
# Protocol: A standard greenhouse herbicide activity screening system was used to evaluate the herbicidal efficacy and crop safety of these test compounds. […] At 14 days after application of the test materials, phytotoxicity ratings were recorded. […]
Mark Fulfilled for ECHCG phytotoxicity rating (0-100 scale) under 60, Not fulfilled if at or over.

>>> print(df.to_string())
                                   compound  answer_label
0  Cn1c(=S)n(C)c(=O)n(-c2cc(Oc3ncccn3)c(Cl)cc2F)c1=O [Compound 2-1]     Fulfilled

In the record for COc1ccc(Oc2cc(-n3c(=O)cc(C(F)(F)F)n(C)c3=S)c(F)cc2C#N)cc1 [Compound 1-72] , is ECHCG phytotoxicity rating (0-100 scale) less than 60?
Fulfilled

In the record for Cn1c(C(F)(F)F)cc(=O)n(-c2cc(Oc3ccccc3C#N)c(Cl)cc2F)c1=S [Compound 1-66] , is ECHCG phytotoxicity rating (0-100 scale) less than 60?
Fulfilled

In the record for Cn1c(C(F)(F)F)cc(=O)n(-c2cc(Oc3ccccc3)c(C#N)cc2F)c1=S [Compound 1-69] , is ECHCG phytotoxicity rating (0-100 scale) less than 60?
Fulfilled

In the record for Fc1cc(Cl)c(Oc2ncccn2)cc1-c1nn2c(c1Cl)CCCC2 [Compound 6-1] , is ECHCG phytotoxicity rating (0-100 scale) less than 60?
Not fulfilled

In the record for Fc1cc(Cl)c(Oc2ncccn2)cc1-c1nn2c(c1Br)CCCC2 [Compound 6-2] , is ECHCG phytotoxicity rating (0-100 scale) less than 60?
Not fulfilled

In the record for Cn1nc(-c2cc(Oc3ncccn3)c(Cl)cc2F)c(Cl)c1[S+]([O-])C(F)F (centres unmarked) [Compound 5-1] , is ECHCG phytotoxicity rating (0-100 scale) less than 60?
Not fulfilled

In the record for COc1ccccc1Oc1cc(-n2c(=O)cc(C(F)(F)F)n(C)c2=S)c(F)cc1C#N [Compound 1-71] , is ECHCG phytotoxicity rating (0-100 scale) less than 60?
Fulfilled

In the record for Cn1c(C(F)(F)F)cc(=O)n(-c2cc(Oc3ccccc3N)c(Cl)cc2F)c1=S [Compound 1-48] , is ECHCG phytotoxicity rating (0-100 scale) less than 60?
Fulfilled

In the record for Cn1c(C(F)(F)F)cc(=O)n(-c2cc(Oc3ccccc3O)c(C#N)cc2F)c1=S [Compound 1-70] , is ECHCG phytotoxicity rating (0-100 scale) less than 60?
Fulfilled

In the record for Cn1c(=S)n(C)c(=O)n(-c2cc(Oc3ccccc3)c(Cl)cc2F)c1=O [Compound 2-16] , is ECHCG phytotoxicity rating (0-100 scale) less than 60?
Fulfilled

In the record for Cn1c(C(F)(F)F)cc(=O)n(-c2cc(Oc3ncccc3C(F)(F)F)c(Cl)cc2F)c1=S [Compound 1-15] , is ECHCG phytotoxicity rating (0-100 scale) less than 60?
Fulfilled

In the record for Cn1c(C(F)(F)F)cc(=O)n(-c2cc(Oc3ncccn3)c(Cl)cc2F)c1=S [Compound 1-1] , is ECHCG phytotoxicity rating (0-100 scale) less than 60?
Not fulfilled

In the record for Cn1c(=S)n(C)c(=O)n(-c2cc(Oc3ccccc3N)c(Cl)cc2F)c1=O [Compound 2-18] , is ECHCG phytotoxicity rating (0-100 scale) less than 60?
Fulfilled

In the record for Cn1c(=S)n(C)c(=O)n(-c2cc(Oc3ccccc3[N+](=O)[O-])c(Cl)cc2F)c1=O [Compound 2-17] , is ECHCG phytotoxicity rating (0-100 scale) less than 60?
Fulfilled

---

Listed next: entries and their corresponding SORHA phytotoxicity rating (0-100 scale).
# System: johnsongrass (Sorghum halepense, SORHA)
# Assay protocol: Post-emerge greenhouse herbicide activity screening, phytotoxicity rating
# Format: in vivo
# Protocol conditions: 250 g ai/ha, 14 days after application
Output spec: single numeric token, no unit.

>>> print(df.to_string())
                                   compound  numeric_value
0  COc1ccc(Oc2cc(-n3c(=O)cc(C(F)(F)F)n(C)c3=S)c(F)cc2C#N)cc1 [Compound 1-72]              0
1  Cn1nc(-c2cc(Oc3ncccn3)c(Cl)cc2F)c(Cl)c1[S+]([O-])C(F)F (stereo not shown) [Compound 5-1]             75
2  N#Cc1c(-c2cc(Oc3ncccn3)c(Cl)cc2F)nn2c1CCCC2 [Compound 6-17]             30

Proceed to the following item.
The recorded SORHA phytotoxicity rating (0-100 scale) for entry Cn1c(=S)n(C)c(=O)n(-c2cc(Oc3ccccc3N)c(Cl)cc2F)c1=O [Compound 2-18] equals 0

---

# Test system: field corn (Zea mays L., var. Dekalb 535, CORN)
# Assay protocol: Post-emerge greenhouse screening, crop safety / corn selectivity (phytotoxicity rating)
# Format: in vivo
# Protocol conditions: 125 g ai/ha, 14 days after application
Listed next: entries and their corresponding CORN crop damage, phytotoxicity rating (0-100 scale).

Some molecules with known CORN crop damage, phytotoxicity rating (0-100 scale) results, for comparison:
>>> df
                                   molecule  result
0  Cn1nc(-c2cc(Oc3ncccn3)c(Cl)cc2F)c(Cl)c1[S+]([O-])C(F)F (stereo not drawn) [Compound 5-1]       7
1  Cn1c(C(F)(F)F)cc(=O)n(-c2cc(Oc3ncccc3C(F)(F)F)c(Cl)cc2F)c1=S [Compound 1-15]       5
2  Cn1c(C(F)(F)F)cc(=O)n(-c2cc(Oc3ccccc3)c(C#N)cc2F)c1=S [Compound 1-69]       0
3  Cn1c(=S)n(C)c(=O)n(-c2cc(Oc3ccccc3[N+](=O)[O-])c(Cl)cc2F)c1=O [Compound 2-17]       5

The recorded CORN crop damage, phytotoxicity rating (0-100 scale) for entry Cn1c(C(F)(F)F)cc(=O)n(-c2cc(Oc3ccccc3N)c(Cl)cc2F)c1=S [Compound 1-48] equals 0

The recorded CORN crop damage, phytotoxicity rating (0-100 scale) for entry Cn1c(=S)n(C)c(=O)n(-c2cc(Oc3ccccc3N)c(Cl)cc2F)c1=O [Compound 2-18] equals 0

The recorded CORN crop damage, phytotoxicity rating (0-100 scale) for entry Fc1cc(Cl)c(Oc2ncccn2)cc1-c1nn2c(c1Cl)CCCC2 [Compound 6-1] equals 10

The recorded CORN crop damage, phytotoxicity rating (0-100 scale) for entry Cn1c(C(F)(F)F)cc(=O)n(-c2cc(Oc3ccccc3C#N)c(Cl)cc2F)c1=S [Compound 1-66] equals 0

The recorded CORN crop damage, phytotoxicity rating (0-100 scale) for entry Cn1c(C(F)(F)F)cc(=O)n(-c2cc(Oc3ccccc3)c(Cl)cc2F)c1=S [Compound 1-47] equals 0

The recorded CORN crop damage, phytotoxicity rating (0-100 scale) for entry Cn1c(=S)n(C)c(=O)n(-c2cc(Oc3ncccn3)c(Cl)cc2F)c1=O [Compound 2-1] equals 0

The recorded CORN crop damage, phytotoxicity rating (0-100 scale) for entry Cn1c(C(F)(F)F)cc(=O)n(-c2cc(Oc3ccccc3[N+](=O)[O-])c(Cl)cc2F)c1=S [Compound 1-49] equals 0

The recorded CORN crop damage, phytotoxicity rating (0-100 scale) for entry Cn1c(C(F)(F)F)cc(=O)n(-c2cc(Oc3ncccn3)c(Cl)cc2F)c1=S [Compound 1-1] equals 10

Where do the numbers come from? From patent US6613718B2.
